Data origin, for the record: BigSolDB 2.1

details: in methanol, 318.15 K
test readout: solubility (mole fraction)

// solubility (mole fraction) lookup, compound = Nc1ccc(S(=O)(=O)[O-])c(N)c1.[Na+] , result: 0.00558

---

conditions: in methanol, 308.15 K
test readout: solubility (mole fraction)
Would you mind answering with just the numeric figure?

The recorded solubility (mole fraction) for entry Nc1ccc(S(=O)(=O)[O-])c(N)c1.[Na+] equals 0.00395

---

details: in methanol, 293.15 K
test readout: solubility (mole fraction)
Would you mind answering with just the numeric figure?

Sample Nc1ccc(S(=O)(=O)[O-])c(N)c1.[Na+] ; solubility (mole fraction) observed: 0.00228

---

details: in methanol, 323.15 K
test readout: solubility (mole fraction)
Answer with the value's number alone.

So, Nc1ccc(S(=O)(=O)[O-])c(N)c1.[Na+] ? Its solubility (mole fraction) was 0.00661

---

conditions: in propylene glycol, 278.15 K
test readout: solubility (mole fraction)
Lab note: record the figure alone, no unit after it.

The recorded solubility (mole fraction) for entry Nc1ccc(S(=O)(=O)[O-])c(N)c1.[Na+] equals 0.00121

---

conditions: in propylene glycol, 313.15 K
test readout: solubility (mole fraction)
Please reply with the value in numeric form only.

solubility (mole fraction) measured on Nc1ccc(S(=O)(=O)[O-])c(N)c1.[Na+] = 0.00577

---

settings: in propylene glycol, 298.15 K
test readout: solubility (mole fraction)
Give the figure by itself; no unit, no explanation.

Given item Nc1ccc(S(=O)(=O)[O-])c(N)c1.[Na+] , the value recorded as its solubility (mole fraction) is 0.0028

---

details: in methanol, 303.15 K
test readout: solubility (mole fraction)
// return a plain number; no unit text

For Nc1ccc(S(=O)(=O)[O-])c(N)c1.[Na+] the molecule record lists solubility (mole fraction) as 0.00318

---

conditions: in methanol, 313.15 K
test readout: solubility (mole fraction)
Response field accepts a number only; no unit should be typed.

Documented solubility (mole fraction) of Nc1ccc(S(=O)(=O)[O-])c(N)c1.[Na+] : 0.00466

---

conditions: in propylene glycol, 293.15 K
test readout: solubility (mole fraction)
Please reply with the number alone, leaving off any unit.

Briefly, solubility (mole fraction) measured for Nc1ccc(S(=O)(=O)[O-])c(N)c1.[Na+] : 0.00235

---

settings: in propylene glycol, 303.15 K
test readout: solubility (mole fraction)
Provide a numeric answer; units are not to be included.

Looking up Nc1ccc(S(=O)(=O)[O-])c(N)c1.[Na+] , I see its solubility (mole fraction) listed as 0.00359

---

settings: in isopropanol, 303.15 K
test readout: solubility (mole fraction)

So, Nc1ccc(S(=O)(=O)[O-])c(N)c1.[Na+] ? Its solubility (mole fraction) was 8.76e-05

---

conditions: in propylene glycol, 273.15 K
test readout: solubility (mole fraction)
// print number alone

The measured solubility (mole fraction) associated with Nc1ccc(S(=O)(=O)[O-])c(N)c1.[Na+] reads 0.000831

---

settings: in propylene glycol, 288.15 K
test readout: solubility (mole fraction)

Please fill in: solubility (mole fraction) reported for Nc1ccc(S(=O)(=O)[O-])c(N)c1.[Na+] = 0.00196

---

details: in propylene glycol, 308.15 K
test readout: solubility (mole fraction)
Respond with the number and no other words.

Lookup result for Nc1ccc(S(=O)(=O)[O-])c(N)c1.[Na+] ; measured solubility (mole fraction): 0.00431

---

details: in isopropanol, 298.15 K
test readout: solubility (mole fraction)
The answer should be written as a number, with no unit following it.

Per the records, this compound ( Nc1ccc(S(=O)(=O)[O-])c(N)c1.[Na+] ) has solubility (mole fraction) equal to 6.99e-05

---

details: in isopropanol, 323.15 K
test readout: solubility (mole fraction)
// no unit, no text: just the number

// Nc1ccc(S(=O)(=O)[O-])c(N)c1.[Na+] : solubility (mole fraction) value = 0.000211

---

conditions: in isopropanol, 318.15 K
test readout: solubility (mole fraction)
Keep the answer to the number alone.

Nc1ccc(S(=O)(=O)[O-])c(N)c1.[Na+] yielded solubility (mole fraction) of 0.00017

---

details: in methanol, 273.15 K
test readout: solubility (mole fraction)
No unit in the answer, please; the number alone is enough.

Lab book: solubility (mole fraction) of Nc1ccc(S(=O)(=O)[O-])c(N)c1.[Na+] noted as 0.000977

---

conditions: in propylene glycol, 323.15 K
test readout: solubility (mole fraction)
Lab note: record just the number, no unit beside it.

solubility (mole fraction) recorded for this compound, Nc1ccc(S(=O)(=O)[O-])c(N)c1.[Na+] , is 0.00963

---

settings: in isopropanol, 283.15 K
test readout: solubility (mole fraction)
Field format: numeric only.

Measured solubility (mole fraction), Nc1ccc(S(=O)(=O)[O-])c(N)c1.[Na+] : 3.51e-05

---

details: in isopropanol, 288.15 K
test readout: solubility (mole fraction)
Answer with a number only.

The compound listed as Nc1ccc(S(=O)(=O)[O-])c(N)c1.[Na+] has a reported solubility (mole fraction) of 4.43e-05
